- System: MS2 coat protein
- Experiment: apparent KD of MS2 coat protein; designed switch direction (-1 OFF switch, 1 ON switch): 1; higher = weaker reporter binding
- Setup Conditions: input ligand: FMN 200 uM
Please use satisfied whenever apparent KD of MS2 coat protein is not below 40 nM, and not satisfied whenever it is.

1) UGUUGUUAAUUAGGAUAUGGGCACAUGAGGAUCACCCAUGUAUUUUCGAUGCUAUGUGGAGACGUCUAGAAGGGAUGGCUAACA [SameState NG2 #88] (Eterna round: R96, puzzle: Same State NG 2) :: satisfied
2) UUGAAUAAUUAAGGAUAUCGAGUACAUAUGUUAAACAUGAGGAUCACCCAUGUGGGUUGCGGUAUCGAGAAGGUAAAAGAAAAG [Mat - Same State NG 2 - JL mod - D60] (Eterna round: R96, puzzle: Same State NG 2) :: not satisfied

We next turn to a different sequence, shown below.
hey, is apparent KD of MS2 coat protein for this one >= 40 nM? AUUUUCAAUGCAGGAUAUGAUUAACAUGAGGAUCACCCAUGUGGUGUUGUGAGUAAGGAGAGUGAUCAGAAGGGCAUUUUUUUU [JMF's solution 97] (Eterna round: R96, puzzle: Same State NG 2)
satisfied

* * *

- System: K4 kissing-loop RNA reporter
- Experiment: apparent KD of K4 kissing-loop reporter; higher = weaker reporter binding
- Setup Conditions: Eterna round: R107; input ligand: arginine 13.2 mM
Measured Attribute: apparent KD of K4 kissing-loop reporter (nM)
Please state the figure in nM; there is no need to write the unit.

Look over these answered cases.
1. GGGAGUAGUGCGGCCGCCACUGAGAAAGAAGAAGAUUGUAGUGAUGUUAUGGAGGAAAGGAAGAACAGGACCGGGCAUUAGAUUU [SSTRyptB.I] :: 735
2. UUCUACGUGCAAGGAUAUCCAUACGCUGCCCAGCGGGUAGCGAUAUAUGGAGUGAUGUUCCAUGUAGGAGAAGGUGCACUGUCCU [Atrea] :: 386
3. UGACUGGACUGAAGGAGCGCUGAAGGAGCGUAAGUAGUGAUGUUGCUUACAGGUAGGUCGCAGCAGGUAGGUCGCAGUCUAGUCU :: 37.1
4. UGUCGAGUGAUGUUCGAUGUGGUGCAUGCAGAGGAUAUAGGGUGGGCUAGAAGGCUGAAAAGUGCUUCGAGUGAUGUUCGAAGAU [Exclusion FMN A GF9] :: 112
5. CCUUGGGCACGCCCACUAGGAAGCUAGUCUAAGGAUAUCGACUGGACGAGAAGGUAGACGGACCCGAGUGAUGUUCGGACAUAGG [theeternabot_sameState_KL_FMN_A_1] :: 260

Look up apparent KD of K4 kissing-loop reporter: UGACUGGACUGAAGGAGCGCUAAAACUCCUAGUGAUGUUGGGAAAUAAGAGACAAAGUCUCAGCAGGUAGGUCGCAGUCUAGUCU [ArgBS 24 #SwitchBubble #StaticStem]
462

Look up apparent KD of K4 kissing-loop reporter: UGUCAUUGGUCUGAUACCAGCUGAUCGGAAACGAUCUUGCUGGAGUGAUGUUCCAAGUAAAGCCCUUGGCAGCAGACCGAUGACU [TheoBS 9 #SwitchBubble #StaticStem]
53.8

Look up apparent KD of K4 kissing-loop reporter: UCGUCCGGAUUACUCGUGGUCAUGGUCGAUACCAGUAGAUUAAUCUACCCUUGGCAGCGACAUGAGUGAUGUUCAUGUGCAAUGA [KL-XTheo-A6 #analogue]
341

Look up apparent KD of K4 kissing-loop reporter: AAACAUCACUGGGAGUGAUGUUCUCAGUGACGAGGACCGGUACGGCCGCCACUCGCGAGAGAUAUAGGUAAGUAAUGACAUCAUU [Excl Tryptophan A V5]
282

Look up apparent KD of K4 kissing-loop reporter: AAGCAGUCACUCGAAUCCAUCGAAGAUGGACGAGGACCGGUACGGCCGCCACUCGGAGUGAUGUUCCGAAGACUGCAAAAUAAAA
246

Look up apparent KD of K4 kissing-loop reporter: AAUAAUGAUGUUUAGGAUUUCCGAAUGGAAGGAGCGUGCGAAAGCACAGGUAGGUCGCCAGUGAUGUUGGGACCUGAGCAUCAAA [#SwitchBubble 6 #K4Late]
514

Look up apparent KD of K4 kissing-loop reporter: GCUACCUAUGCAGGAUAUGGUAUUACGAGUGAUGUUCGAGGCAUAUAGAGUGAUGUUCUAUAUCCACCAGAAGGGCAUAGGUAGC
148

* * *

- Test system: MS2 coat protein
- Experiment: apparent KD of MS2 coat protein; designed switch direction (-1 OFF switch, 1 ON switch): -1; higher = weaker reporter binding
- Setup Conditions: input ligand: FMN 200 uM
apparent KD of MS2 coat protein values, listed per item
Please state the figure in nM; there is no need to write the unit.

Look up apparent KD of MS2 coat protein: CAUGAUUGGCGAGGAUAUUGACCUAGUUAGCGACGAGAAGGCGCCUGUCACAUGAGGAUCACCCAUGUGAAUCUGGUGAAAGAG [Ex NG1 #92] (Eterna round: R96, puzzle: Exclusion NG 1)
21.6

Look up apparent KD of MS2 coat protein: AUGGAAGAGCAAUAGCUCUACAUGAGGAUCACCCAUGUAGGAAAUACUGGGUACAGCGGGCUUUUUGCUCGGCUUAU [Alacar Attempt 4] (Eterna round: R97, puzzle: Sensor, turn-off variant 1)
364

Look up apparent KD of MS2 coat protein: GGUAGAGUGGUAGGAUAUCCGUCUGUUUCAGUCGGAGAAGGGCCACAGUCACUGGGUCCUAAUAUCAUGGAGACCUGAUCUACU [pwkr exNG1 F6.13] (Eterna round: R96, puzzle: Exclusion NG 1)
785

* * *

apparent KD of K4 kissing-loop reporter values, listed per item
- Test system: K4 kissing-loop RNA reporter;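 note: bound reporter read as fluorescence of individual clusters on recovered sequencing chips by microscopy, with normalized cluster intensities fitted with a binding model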
- Experiment: apparent KD of K4 kissing-loop reporter; higher = weaker reporter binding
- Setup Conditions: Eterna round: R107; input ligand: arginine 13.2 mM
Please state the figure in nM; there is no need to write the unit.

Look over these answered cases.
1) GCGAUUCAGUGAUGUUGGAAAUACAGGGAUACCAGCCGAAAAUAAGGCCCUUGGCAGCUUAAUAGGAAAGAACUAAGAAAGACGC [Theophylline A Same State; Euphoria Solution 3] :: 603
2) GGCGGCCGCGCGUAAGCGCGGCCGGCCGAUACCAGCGCGACGGCGCGCCCUUGGCAGCGGCGCCGAGUGAUGUUCGGCCUGCCGG [#2 Same State - Theophylline A Attempt #17 (HarryS)] :: 381

API: the following record is the query input.
Look up apparent KD of K4 kissing-loop reporter: AGACUACCACACUGUCAAUAGACAGUGUACUAGGAUAUGCUGAUAAGCAGAAGGAGUGAUGUUCCCAGGUAGUCAAUAAAAUAAU [FmnAX 13 U28+C66]
189

* * *

- Tested on: MS2 coat protein
- Experiment: apparent KD of MS2 coat protein; designed switch direction (-1 OFF switch, 1 ON switch): -1; higher = weaker reporter binding
- Setup Conditions: input ligand: none
Measured Attribute: apparent KD of MS2 coat protein
Report the figure along with its unit, number first.

1. AGUACUAUCACGAAAGUGAUAGUACAAAUAAGCUUUAGAACAUGAGGAUCACCCAUGUCCUCUUAAGCUCGUCUUAU [Mat - Sensor v2 -ver2- JL mod - D56] (Eterna round: R96, puzzle: Sensor v2, turn-off variant 2) :: 17.1 nM
2. UAUGUGUCAGGAUAUUAAUUAUAGGAGAAUGUGACGAUGAUUAAGAAGGGACAUGAGGAUCACCCAUGUUCAUC [JR_Ex4_Sub025] (Eterna round: R97, puzzle: Exclusion 4) :: 19 nM
3. ACUCGACAUGAGGAUCACCCAUGUGAGGAUAUGGCCUGUUUGGCGUGAGCUGGCUCUGUCAGAAGGCGCGUGGG [salish99_ex1_r4_045] (Eterna round: R97, puzzle: Exclusion 1) :: 75.5 nM

Look up apparent KD of MS2 coat protein: GCCCGUGGGCAAGGAUAUCCUACGCUGUUCUGGUUCGUGUCUGUCACAUGAGGAUCACCCAUGUGGGAGAAGGUGCAUUAGGGU [Design 54] (Eterna round: R96, puzzle: Exclusion NG 2)
16.8 nM

Look up apparent KD of MS2 coat protein: AAACUGAGGCAAAGCUUUAGUCGUACAUGAGGAUCACCCAUGUAGGAUAUGGUAGGCUUUGCUUACCAGAAGGACAGAGUGAUC [Mat - Exclusion NG 3 - Mod of JL - D56] (Eterna round: R96, puzzle: Exclusion NG 3)
110 nM

Look up apparent KD of MS2 coat protein: UAAAGCGUAGGAUAUACAUUCAUGAGCACCACCCGGUGCACACAUGAGGAUCACCCAUGUAGAAGGAUGCUACG [Eternabot (Original) Solution 49] (Eterna round: R97, puzzle: Exclusion 2)
17.6 nM

Look up apparent KD of MS2 coat protein: GGGCGUUAAGGAUAUGAUUGAAGGAACAUGAGGAUCACCCAUGUUCGGUGCCUAAUGUUCUCAGAAGGUGAUAGCU [Eternabot (L1) Solution 50] (Eterna round: R97, puzzle: Exclusion 5)
175 nM

Look up apparent KD of MS2 coat protein: AACUUACAUGAGGAUCACCCAUGUCAGGAUAUCGAAAUUGGCCUGCAAUUACAGGCGACGAGAAGGGACGUUUU [EX1 B.24] (Eterna round: R97, puzzle: Exclusion 1)
16.9 nM

The measured values listed here are drawn from the supplement of paper PMC9170038.
